biological target: human GPR119 (Homo sapiens, UniProt Q8TDV5); assay: Functional cellular assay measuring GPR119-mediated cAMP release (HTRF) in HEK-293 cells stably expressing recombinant human GPR119; conditions: cAMP response, cell line expressing human GPR119, 30 minutes at room temperature
Quantity kind: EC50

Compound | Endpoint value
CN(C)C(=O)CN1Cc2ccc(N3CC[C@@H](Oc4ccc(C(=O)C5CC(F)(F)C5)cc4)C3=O)cc2C1=O [Example 2-63] | 98 nM
COC(=O)CN1Cc2ccc(N3CC[C@@H](Oc4ccc(OCC(F)(F)F)nc4)C3=O)cc2C1=O [Example 1-65] | 52 nM
O=C(CN1Cc2c(F)cc(N3CC[C@@H](Oc4ccc(OCCC5CC5)nc4)C3=O)cc2C1=O)N1CCCC1 [Example 4-26] | 48 nM
O=C(CN1Cc2ccc(N3CC[C@@H](Oc4ccc(OCC(F)(F)F)nc4)C3=O)cc2C1=O)N1CCCC1 [Example 4-40] | 43 nM
CC(C)(C)N1Cc2c(F)cc(N3CC[C@@H](Oc4ccc(OCC5CC5)nc4)C3=O)cc2C1=O [Example 1-33] | 8510 nM

* * *

Target: human GPR119 (Homo sapiens, UniProt Q8TDV5)
Construct: expressed in transfected cells
Sequence (Q8TDV5 1-335): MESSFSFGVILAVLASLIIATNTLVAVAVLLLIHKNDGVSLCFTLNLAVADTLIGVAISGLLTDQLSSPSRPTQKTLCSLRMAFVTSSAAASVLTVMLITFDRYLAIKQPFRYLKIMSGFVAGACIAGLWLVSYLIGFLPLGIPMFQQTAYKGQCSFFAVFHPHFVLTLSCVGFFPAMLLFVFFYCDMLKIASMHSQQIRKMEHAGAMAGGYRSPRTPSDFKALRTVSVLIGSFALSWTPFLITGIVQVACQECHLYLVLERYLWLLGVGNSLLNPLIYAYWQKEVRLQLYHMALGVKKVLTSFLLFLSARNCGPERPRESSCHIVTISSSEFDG
Experiment: Functional cellular assay measuring GPR119-mediated cAMP release (HTRF) in HEK-293 cells stably expressing recombinant human GPR119
Assay type: cell-based
Conditions: cAMP response, cell line expressing human GPR119, 30 minutes at room temperature
Procedure: Functional Cellular Assays Measuring GPR119-Mediated cAMP Release Compounds of the invention, which are agonists of GPR119, were characterized by functional assays measuring the cAMP response of HEK-293 cell lines stably expressing recombinant GPR119 from man, mouse or rat, or by using a hamster cell line HIT-T15 expressing GPR119 endogenously. The cAMP content was determined using a kit based on homogenous time-resolved fluorescence (HTRF) from Cisbio Corp. (cat. no. 62AM4PEC). […]
pEC50: −log10 of the molar value.

Compound | pEC50
CN(C)C(=O)CN1Cc2c(F)cc(N3CC[C@@H](Oc4ccc(OCC(F)(F)F)nc4)C3=O)cc2C1=O [Example 6-01] | 7.11
CN(CCO)C(=O)CN1Cc2ccc(N3CC[C@@H](Oc4ccc(OCC5CC5)nc4)C3=O)cc2C1=O [Example 4-06] | 6.55
COCCNC(=O)CN1Cc2c(F)cc(N3CC[C@@H](Oc4ccc(OCCC5CC5)nc4)C3=O)cc2C1=O [Example 4-20] | 7.21
CN(C)C(=O)CN1Cc2ccc(N3CC[C@@H](Oc4ccc(-c5nnco5)cc4)C3=O)cc2C1=O [Example 2-29] | 5.47
CCN(CC)C(=O)CN1Cc2ccc(N3CC[C@@H](Oc4ccc(OCC(F)(F)F)nc4)C3=O)cc2C1=O [Example 4-41] | 7.40
NC(=O)CN1Cc2ccc(N3CC[C@@H](Oc4ccc(-c5nccs5)cc4)C3=O)cc2C1=O [Example 2-51] | 6.90
O=C(O)CN1Cc2c(F)cc(N3CC[C@@H](Oc4ccc(OCC5CC5)nc4)C3=O)cc2C1=O [Example 3-01] | 5.98
CN(C)C(=O)CN1Cc2ccc(N3CC[C@@H](Oc4ccc(OCCC5CC5)nc4)C3=O)cc2C1=O [Example 1-38] | 7.46
O=C1OCCC1N1Cc2ccc(N3CC[C@@H](Oc4ccc(OCC5CC5)nc4)C3=O)cc2C1=O (some centres unmarked) [Example 1-06] | 6.82
CN(C)C(=O)CN1Cc2ccc(N3CC[C@@H](Oc4ccc(C(=O)C5CC5(F)F)cc4)C3=O)cc2C1=O (some centres unmarked) [Example 2-65] | 6.90
Cn1nnc(N2Cc3ccc(N4CC[C@@H](Oc5ccc(OCC6CC6)nc5)C4=O)cc3C2=O)n1 [Example 1-10] | 6.57
CN(C)C(=O)CN1Cc2ccc(N3CC[C@@H](Oc4ccc(C(=O)C5(C)CC5)nc4)C3=O)cc2C1=O [Example 2-59] | 6.48
C[S+]([O-])CN1Cc2ccc(N3CC[C@@H](Oc4ccc(C(=O)C5CC5)cc4)C3=O)cc2C1=O (some centres unmarked) [Example 1-60] | 6.83
COC(=O)CC1c2ccc(N3CC[C@@H](Oc4ccc(OCC5CC5)nc4)C3=O)cc2C(=O)N1C (some centres unmarked) [Example 1-05] | 6.50
O=C(O)CN1Cc2c(F)cc(N3CC[C@@H](Oc4ccc(OCCC5CC5)nc4)C3=O)cc2C1=O [Example 3-03] | 7.06
C[S+]([O-])CN1Cc2ncc(N3CC[C@@H](Oc4ccc(Oc5ccc(F)cc5)nc4)C3=O)cc2C1=O (some centres unmarked) [Example 1-55] | 6.97
CN(C)C(=O)c1nc2ccc(N3CC[C@@H](Oc4ccc(OCC5CC5)nc4)C3=O)cc2c(=O)n1C [Example 1-43] | 6.35

Each recorded value in this set is attributed to patent US9908868B2.
